Reference source: PubChem BioAssay AID1745844

- System: rodent lifetime carcinogenesis bioassay, tumor incidence TD50
- measurement_notes: carcinogenic potency in animals, long-term in vivo studies, CPDB compilation (AID 1745844)
- measurement_setup: mouse; strain B6C3F1; females; i.p.; site: all sites + multiple organs; lesion: lymphoma + granulocytic leukemia + granulocytic sarcoma; dosed 52 weeks; study length 81 weeks
measure: TD50

structure_smiles	result
Nc1ncn([C@@H]2O[C@H](CO)[C@@H](O)[C@H]2O)c(=O)n1	0.256 mg/kg/day

###

- Tested on: rodent lifetime carcinogenesis bioassay, tumor incidence TD50
- measurement_notes: carcinogenic potency in animals, long-term in vivo studies, CPDB compilation (AID 1745844)
- measurement_setup: rat; strain Fischer 344; females; in feed; site: liver; lesion: hepatocellular adenoma + hepatocellular carcinoma + neoplastic nodule; dosed 78 weeks; study length 105 weeks
// reported TD50 per item

structure_smiles	TD50, mg/kg/day
Nc1ccc(Cl)cc1N	6500
Nc1cc([N+](=O)[O-])ccc1C(=O)O	11800
O=Nc1ccc(Nc2ccccc2)cc1	1210
c1ccc2n[nH]nc2c1	10100
